EXPERIMENT_NOTES: Solubility of the compound at pH 7.4
Type: physicochemical
PROTOCOL_CONDITIONS: buffer

[
  {
    "STRUCTURE_NOTATION": "Cc1n[nH]c2c1[C@@H](O)[C@H](n1nnc3ccccc31)[C@@H](c1ccccc1Cl)N2",
    "solubility": "> 100 µM"
  },
  {
    "STRUCTURE_NOTATION": "Cc1n[nH]c2c1[C@@H](O)[C@H](n1nnc3ccccc31)[C@@H](c1ccccc1)N2",
    "solubility": "> 100 µM"
  },
  {
    "STRUCTURE_NOTATION": "Cc1n[nH]c2c1[C@@H](O)[C@H](n1nnc3ccccc31)[C@@H](c1ccccc1Br)N2",
    "solubility": "> 100 µM"
  }
]
